Recorded values, source PubChem BioAssay AID1963848.

Let's look at some compounds and their measured viability, T/C.
# System: 379773-124-R-J2-PDC spheroid viability
# experimentalProtocol: Anticancer human tumor 379773-124-R-J2-PDC patient-derived endometrial carcinoma cell line growth inhibition [POLQ]
# protocolConditions: second compound 3.16 µM; first compound 0.1 µM; stronger effect = lower value; spheroids with HUVEC and MSC
# Protocol: Multicellular complex tumor spheroid response to Polymerase (POL) inhibitors (novobiocin, ART-558, RP6685) in combination with a variety of drugs and investigational agents in selected tumor cell lines The POL inhibitors (novobiocin, ART-558, and RP6685) were evaluated both individually and in combination with standard of care and investigational anticancer small molecules within a complex spheroid model of solid tumors. . […]
Give just the number in %; leave the unit off.

Asked: Reported viability, T/C for COc1cc2cc(C(=O)CCC(=O)O)sc2cc1OC + Nc1ccc(C#CCN(C(=O)Cc2ncc(C(F)(F)F)cc2C(F)(F)F)c2ccc(F)cc2)nn1 : what is it?
Given back: 83.4

Asked: Look up viability, T/C: CCc1cc2c(N3CCc4c(cc(Cn5ccnc5)cc4-c4cn(C)nc4C(F)(F)F)C3=O)ccnc2c(OC)n1 + Nc1ccc(C#CCN(C(=O)Cc2ncc(C(F)(F)F)cc2C(F)(F)F)c2ccc(F)cc2)nn1
Given back: 69.7

Asked: Given the entry COc1cc(C2c3cc4c(cc3C(OC3OC5COC(C)OC5C(O)C3O)C3COC(=O)C23)OCO4)cc(OC)c1O (stereo not given) + COC1C(OC(N)=O)C(O)C(Oc2ccc3c(O)c(NC(=O)c4ccc(O)c(CC=C(C)C)c4)c(=O)oc3c2C)OC1(C)C , report its measured viability, T/C.
Given back: 84.7

Asked: viability, T/C for COc1ccc([C@@H](O)c2cc(-c3ncnc4cc(N5CCOCC5)ccc34)c(F)cc2Cl)nn1 + COC1C(OC(N)=O)C(O)C(Oc2ccc3c(O)c(NC(=O)c4ccc(O)c(CC=C(C)C)c4)c(=O)oc3c2C)OC1(C)C ?
Given back: 83.3

Further cases:
Asked: Look at this compound and give its reported viability, T/C. COc1ccc([C@@H](O)c2cc(-c3ncnc4cc(N5CCOCC5)ccc34)c(F)cc2Cl)nn1 + Nc1ccc(C#CCN(C(=O)Cc2ncc(C(F)(F)F)cc2C(F)(F)F)c2ccc(F)cc2)nn1
Given back: 92.1

###

# Test system: 379773-124-R-J2-PDC spheroid viability
# experimentalProtocol: Anticancer human tumor 379773-124-R-J2-PDC cell line growth inhibition [POLQ];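 note: spheroids exposed to drugs for seven days before readout; percent viability relative to DMSO vehicle control taken as 100%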
# protocolConditions: second compound 0.1 µM; first compound 0.1 µM; stronger effect = lower value; spheroids with HUVEC and MSC
// values below are reported viability, T/C
Respond with the bare value in %.

Asked: Return viability, T/C measured with 379773-124-R-J2-PDC spheroid viability given this compound: CCCS(=O)(=O)Nc1ccc(F)c(C(=O)c2c[nH]c3ncc(-c4ccc(Cl)cc4)cc23)c1F + Cc1cccc(N(C)C(=O)C2C(O)CCN2c2nc(C)cc(C(F)(F)F)c2C#N)c1
Given back: 89.5

Asked: Under 379773-124-R-J2-PDC spheroid viability: viability, T/C value of COc1cccc2c1C(=O)c1c(O)c3c(c(O)c1C2=O)CC(O)(C(=O)CO)CC3OC1CC(N)C(O)C(C)O1 (stereo not drawn) + Nc1ccc(C#CCN(C(=O)Cc2ncc(C(F)(F)F)cc2C(F)(F)F)c2ccc(F)cc2)nn1 ?
Given back: 37.4

Next compound, please.
Asked: Return viability, T/C measured with 379773-124-R-J2-PDC spheroid viability given this compound: CC1COCCN1c1cc(C2(O)CC3CCC(C2)O3)c2cnn(-c3ccn[nH]3)c2n1 (stereo not drawn) + Nc1ccc(C#CCN(C(=O)Cc2ncc(C(F)(F)F)cc2C(F)(F)F)c2ccc(F)cc2)nn1
Given back: 51.4

###

# Test system: 379773-124-R-J2-PDC spheroid viability
# experimentalProtocol: Anticancer human tumor 379773-124-R-J2-PDC cell line growth inhibition [POLQ];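 note: spheroids exposed to drugs for seven days before readout; percent viability relative to DMSO vehicle control taken as 100%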
# protocolConditions: second compound 3.16 µM; first compound 0.1 µM; stronger effect = lower value; spheroids with HUVEC and MSC
Attribute: viability, T/C
The response must be a number in % with no trailing unit.

Solved cases below.
Asked: Which viability, T/C value belongs to CCc1cc2c(N3CCc4c(cc(Cn5ccnc5)cc4-c4cn(C)nc4C(F)(F)F)C3=O)cc(C)nc2c(OC)n1 + COC1C(OC(N)=O)C(O)C(Oc2ccc3c(O)c(NC(=O)c4ccc(O)c(CC=C(C)C)c4)c(=O)oc3c2C)OC1(C)C ?
Given back: 59.6

Asked: Record request: viability, T/C value, item O=c1[nH]cc(F)c(=O)[nH]1 + Cc1cccc(N(C)C(=O)C2C(O)CCN2c2nc(C)cc(C(F)(F)F)c2C#N)c1
Given back: 97.8

Asked: I'd like to know its viability, T/C. The compound in question is C=CC(=O)N1CCN(c2nc(=O)n(-c3c(C)ccnc3C(C)C)c3nc(-c4c(O)cccc4F)c(F)cc23)C(C)C1 (configuration not stated) + COC1C(OC(N)=O)C(O)C(Oc2ccc3c(O)c(NC(=O)c4ccc(O)c(CC=C(C)C)c4)c(=O)oc3c2C)OC1(C)C
Given back: 84.6

Asked: Dear colleague, I am looking for the recorded viability, T/C of the following compound: CCc1cc2c(N3CCc4c(cc(Cn5ccnc5)cc4-c4cn(C)nc4C(F)(F)F)C3=O)ccnc2c(OC)n1 + Cc1cccc(N(C)C(=O)C2C(O)CCN2c2nc(C)cc(C(F)(F)F)c2C#N)c1
Given back: 80.8

Asked: Given the compound Nc1ccn(C2OC(CO)C(O)C2(F)F)c(=O)n1 (configuration not stated) + Cc1cccc(N(C)C(=O)C2C(O)CCN2c2nc(C)cc(C(F)(F)F)c2C#N)c1 , what is its reported viability, T/C?
Given back: 10.5

New cases:
Asked: Recorded viability, T/C of CC1COCCN1c1cc(C2(O)CC3CCC(C2)O3)c2cnn(-c3ccn[nH]3)c2n1 (configuration not stated) + Cc1cccc(N(C)C(=O)C2C(O)CCN2c2nc(C)cc(C(F)(F)F)c2C#N)c1 , please.
Given back: 40.2

Asked: What does the data say about its viability, T/C? Entry: COc1cccc2c1C(=O)c1c(O)c3c(c(O)c1C2=O)CC(O)(C(=O)CO)CC3OC1CC(N)C(O)C(C)O1 (configuration not stated) + COC1C(OC(N)=O)C(O)C(Oc2ccc3c(O)c(NC(=O)c4ccc(O)c(CC=C(C)C)c4)c(=O)oc3c2C)OC1(C)C
Given back: 23.2

###

# System: 379773-124-R-J2-PDC spheroid viability
# experimentalProtocol: Anticancer human tumor 379773-124-R-J2-PDC cell line growth inhibition [POLQ];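 note: spheroids exposed to drugs for seven days before readout; percent viability relative to DMSO vehicle control taken as 100%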
# protocolConditions: second compound 0.1 µM; first compound 0.1 µM; stronger effect = lower value; spheroids with HUVEC and MSC
# Procedure: Multicellular complex tumor spheroid response to Polymerase (POL) inhibitors (novobiocin, ART-558, RP6685) in combination with a variety of drugs and investigational agents in selected tumor cell lines The POL inhibitors (novobiocin, ART-558, and RP6685) were evaluated both individually and in combination with standard of care and investigational anticancer small molecules within a complex spheroid model of solid tumors. . […]
observationType: viability, T/C

// below: answered molecules
Asked: What value of viability, T/C has been recorded for this entry: COc1ccc([C@@H](O)c2cc(-c3ncnc4cc(N5CCOCC5)ccc34)c(F)cc2Cl)nn1 + Cc1cccc(N(C)C(=O)C2C(O)CCN2c2nc(C)cc(C(F)(F)F)c2C#N)c1
Given back: 89.6%

Asked: Which viability, T/C reading was recorded for the molecule C#Cc1c(F)ccc2cc(O)cc(-c3ncc4c(N5CC6CCC(C5)N6)nc(OCC56CCCN5CC(F)C6)nc4c3F)c12 (stereo not given) + Cc1cccc(N(C)C(=O)C2C(O)CCN2c2nc(C)cc(C(F)(F)F)c2C#N)c1 ?
Given back: 68.7%

Asked: Fill in the blank: the reported viability, T/C of COc1cc(C2c3cc4c(cc3C(OC3OC5COC(C)OC5C(O)C3O)C3COC(=O)C23)OCO4)cc(OC)c1O (stereo not given) + COC1C(OC(N)=O)C(O)C(Oc2ccc3c(O)c(NC(=O)c4ccc(O)c(CC=C(C)C)c4)c(=O)oc3c2C)OC1(C)C is ____.
Given back: 80.6%

New cases:
Asked: Recorded viability, T/C for CC1COCCN1c1cc(C2(O)CC3CCC(C2)O3)c2cnn(-c3ccn[nH]3)c2n1 (stereo not given) + Cc1cccc(N(C)C(=O)C2C(O)CCN2c2nc(C)cc(C(F)(F)F)c2C#N)c1 , please?
Given back: 48.1%

Asked: Could you tell me which viability, T/C is on file for CCc1cc2c(N3CCc4c(cc(Cn5ccnc5)cc4-c4cn(C)nc4C(F)(F)F)C3=O)ccnc2c(OC)n1 + Nc1ccc(C#CCN(C(=O)Cc2ncc(C(F)(F)F)cc2C(F)(F)F)c2ccc(F)cc2)nn1 ?
Given back: 71.1%

Asked: Consider the molecule shown here: CCc1c2c(nc3ccc(O)cc13)-c1cc3c(c(=O)n1C2)COC(=O)[C@]3(O)CC + Nc1ccc(C#CCN(C(=O)Cc2ncc(C(F)(F)F)cc2C(F)(F)F)c2ccc(F)cc2)nn1 What is its recorded viability, T/C?
Given back: 4.92%

Asked: Need viability, T/C, item COc1cccc2c1C(=O)c1c(O)c3c(c(O)c1C2=O)CC(O)(C(=O)CO)CC3OC1CC(N)C(O)C(C)O1 (stereo not given) + COC1C(OC(N)=O)C(O)C(Oc2ccc3c(O)c(NC(=O)c4ccc(O)c(CC=C(C)C)c4)c(=O)oc3c2C)OC1(C)C
Given back: 27.9%

Asked: Field request: viability, T/C | item: O=C(c1cc(Cc2n[nH]c(=O)c3ccccc23)ccc1F)N1CCN(C(=O)C2CC2)CC1 + Cc1cccc(N(C)C(=O)C2C(O)CCN2c2nc(C)cc(C(F)(F)F)c2C#N)c1
Given back: 89.6%

Asked: Suppose we examine the molecule O=C(Nc1ccc(O)c(NS(=O)(=O)c2ccc(F)cc2)c1)c1ccc(-c2ccccc2)cc1 + Nc1ccc(C#CCN(C(=O)Cc2ncc(C(F)(F)F)cc2C(F)(F)F)c2ccc(F)cc2)nn1 ; what viability, T/C value has been reported?
Given back: 81.8%

Asked: Which viability, T/C reading was recorded for the molecule CC(C)n1c(=O)n(C)c2cnc3cc(F)c(-c4ccc(OCCCN5CCCCC5)nc4)cc3c21 + COC1C(OC(N)=O)C(O)C(Oc2ccc3c(O)c(NC(=O)c4ccc(O)c(CC=C(C)C)c4)c(=O)oc3c2C)OC1(C)C ?
Given back: 87.4%
